Each recorded value in this set is attributed to patent US11053235B2.

- Tested on: HBV
- Protocol Summary: Anti-viral assay in HepG2.2.15 cells: HBV inhibitory activity (HBV DNA in culture medium by q-PCR)
- Format: cell-based
- Particulars: Hepatitis B virus, HepG2.2.15, 144 h, HepG2.2.15 cells, 6 days treatment, HBV DNA in culture medium by q-PCR, highest concentration 10 uM; read-out: EC50
// reported EC50 for each item listed
Give a bare numeral; the unit nM is implied.

These recorded examples may help you get a feel for the data.
CCOC(=O)C1=C(C2CCN(c3ncc(CC(=O)O)cn3)CC2)NC(c2nccs2)=NC1c1ccc(F)cc1Cl (single isomer, unassigned)
6.2
COC(=O)C1=C([C@H]2CC[C@H](c3nc(CC(=O)O)co3)CC2)NC(c2nccs2)=NC1c1cccc(F)c1C (single isomer, unassigned)
57
CCOC(=O)C1=C(C2CCN(c3ccc(C(=O)O)cn3)CC2)NC(c2nccs2)=NC1c1ccc(F)c(F)c1Cl (single isomer, unassigned)
16
COC(=O)C1=C(C2CCN(c3ncc(C)c(C(=O)O)n3)CC2)NC(c2nccs2)=NC1c1ccc(F)c(F)c1C (single isomer, unassigned)
6.1
CCOC(=O)C1=C(C2CN(c3nc(C(=O)O)co3)C2)NC(c2nccs2)=NC1c1ccc(F)c(F)c1Cl (single isomer, unassigned)
2870
CCOC(=O)C1=C([C@H]2CC[C@H](c3nc(C(=O)O)co3)CC2)NC(c2nccs2)=NC1c1cccc(F)c1Cl (single isomer, unassigned)
25
CCOC(=O)C1=C(C2CCN(c3ncc(C(C)(C)C(=O)O)cn3)CC2)NC(c2nccs2)=NC1c1ccc(F)c(F)c1Cl (single isomer, unassigned)
12
COC(=O)C1=C([C@H]2CC[C@H](c3nc(CC(=O)O)co3)CC2)NC(c2nccs2)=NC1c1cccc(F)c1Cl (single isomer, unassigned)
30
CCOC(=O)C1=C(C2CCN(c3ncc(CC(=O)O)cn3)CC2)NC(c2nccs2)=NC1c1ccc(F)c(F)c1Cl (single isomer, unassigned)
3.1
CCOC(=O)C1=C(C2CCN(c3cc(O)c(C(=O)O)cn3)CC2)NC(c2nccs2)=NC1c1ccc(F)c(F)c1Cl (single isomer, unassigned)
52

input: Recorded EC50 for CCOC(=O)C1=C(C2CCC(c3cnn(C4CC(C(=O)O)C4)c3)CC2)NC(c2nccs2)=NC1c1ccc(F)c(F)c1Cl (stereo not shown) , please?
output: 55

input: COC(=O)C1=C(C2CCN(c3cc(C(=O)O)c(C)cn3)CC2)NC(c2nccs2)=NC1c1ccc(F)cc1Cl (single isomer, unassigned) ?
output: 9

input: COC(=O)C1=C(C2CCN(c3ncc(C(=O)O)s3)CC2)NC(c2nccs2)=NC1c1cccc(F)c1Cl (single isomer, unassigned) ?
output: 9.2

input: CCOC(=O)C1=C([C@H]2CC[C@H](c3nc(C(=O)O)co3)CC2)NC(c2nccs2)=NC1c1ccc(F)c(F)c1Cl (single isomer, unassigned) ?
output: 6

input: CCOC(=O)C1=C([C@H]2CC[C@H](c3nc(CCC(=O)O)co3)CC2)NC(c2nccs2)=NC1c1ccc(F)c(F)c1Cl (relative stereo) [Compound I-24] ?
output: 12

input: CCOC(=O)C1=C(C2CCN(c3ncc(CCC(=O)O)cn3)CC2)NC(c2nccs2)=NC1c1ccc(F)c(F)c1Cl (single isomer, unassigned) ?
output: 7.2

input: COC(=O)C1=C([C@H]2CC[C@H](c3ncc(C)c(C(=O)O)n3)CC2)NC(c2nccs2)=NC1c1ccc(F)c(F)c1Br (single isomer, unassigned) ?
output: 5.9

input: COC(=O)C1=C([C@H]2CC[C@H](c3nc(CC(=O)O)co3)CC2)NC(c2nccs2)=NC1c1ccc(F)c(F)c1Cl (single isomer, unassigned) ?
output: 4.8
